# SYSTEM: Poly [ADP-ribose] polymerase 1 (Homo sapiens)
# Sequence (P09874 whole entry): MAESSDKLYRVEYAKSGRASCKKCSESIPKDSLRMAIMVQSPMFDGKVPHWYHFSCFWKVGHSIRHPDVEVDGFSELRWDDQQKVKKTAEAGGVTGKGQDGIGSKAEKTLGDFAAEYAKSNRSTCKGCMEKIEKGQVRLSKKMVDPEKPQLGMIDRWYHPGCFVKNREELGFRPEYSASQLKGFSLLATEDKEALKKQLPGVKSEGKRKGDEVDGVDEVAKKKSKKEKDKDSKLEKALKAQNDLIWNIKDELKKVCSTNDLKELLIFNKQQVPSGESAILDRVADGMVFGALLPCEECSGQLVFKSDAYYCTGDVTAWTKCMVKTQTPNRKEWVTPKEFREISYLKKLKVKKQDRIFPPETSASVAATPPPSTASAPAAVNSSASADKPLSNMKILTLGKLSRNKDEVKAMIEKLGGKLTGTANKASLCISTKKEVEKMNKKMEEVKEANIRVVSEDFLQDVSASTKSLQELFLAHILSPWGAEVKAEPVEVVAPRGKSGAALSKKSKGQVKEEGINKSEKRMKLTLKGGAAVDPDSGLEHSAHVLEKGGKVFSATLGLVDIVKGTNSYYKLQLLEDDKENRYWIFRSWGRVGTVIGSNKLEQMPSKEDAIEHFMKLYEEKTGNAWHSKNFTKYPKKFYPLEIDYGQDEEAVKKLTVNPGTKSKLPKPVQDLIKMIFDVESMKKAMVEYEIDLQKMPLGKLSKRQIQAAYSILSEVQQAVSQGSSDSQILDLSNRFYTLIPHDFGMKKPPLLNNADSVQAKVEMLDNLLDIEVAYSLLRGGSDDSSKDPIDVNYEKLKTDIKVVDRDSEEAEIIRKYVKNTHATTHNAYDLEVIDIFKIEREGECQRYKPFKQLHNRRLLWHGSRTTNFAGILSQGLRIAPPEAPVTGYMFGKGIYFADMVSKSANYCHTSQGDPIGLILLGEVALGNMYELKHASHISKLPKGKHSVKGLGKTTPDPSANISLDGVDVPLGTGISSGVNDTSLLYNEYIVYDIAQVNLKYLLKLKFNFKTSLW
PROPERTY LABEL: IC50

input: Given the compound "N#Cc1cnc(N2CCN(C(=O)c3cc(Cc4n[nH]c(=O)c5ccc(OC6CCC6)cc45)ccc3F)CC2)cc1C(F)(F)F" , what is its reported IC50?
output: > 2 µM

----------
pIC50: −log10 of the molar value.
The following are reported pIC50 results, target or system Poly [ADP-ribose] polymerase 2 (Homo sapiens).

# SMILES STRING, pIC50
measured = [
    ("CC#Cc1ccc2c(=O)[nH]nc(Cc3ccc(F)c(C(=O)N4CCN(c5ncc(C(F)(F)F)cn5)CC4)c3)c2c1", "< 5.70"),
]

Now for another entry.
input: What does the record list as pIC50 for "N#Cc1cnc(N2CCN(C(=O)c3cc(Cc4n[nH]c(=O)c5ccc(OC6CCC6)cc45)ccc3F)CC2)cc1C(F)(F)F" ?
output: < 5.70
